# SYSTEM_TESTED: CD28, endogenously expressed on Jurkat/IL2 reporter cells (human) (UniProt P10747)
# ASSAY_OVERVIEW: flow cytometry on Jurkat (CD28) cells; MFI relative to WT CD80 (CD80 WT IgV-Fc = 1.0)
READOUT: Fold change to WT CD80 (fold)

Example results:
variant CD80 IgV-Fc E35D/M47V (Fc fusion) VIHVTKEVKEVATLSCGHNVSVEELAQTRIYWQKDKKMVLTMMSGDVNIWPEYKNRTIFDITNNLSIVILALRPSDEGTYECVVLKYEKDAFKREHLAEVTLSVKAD; 7
variant CD80 IgV-Fc E35D/D46E/L85M (Fc fusion) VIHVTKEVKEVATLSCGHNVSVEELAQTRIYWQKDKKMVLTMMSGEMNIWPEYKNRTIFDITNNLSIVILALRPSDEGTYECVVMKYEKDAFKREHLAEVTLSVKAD; 2.5
variant CD80 IgV-Fc H18Y/E35D/M47L/A71G/A91S (Fc fusion) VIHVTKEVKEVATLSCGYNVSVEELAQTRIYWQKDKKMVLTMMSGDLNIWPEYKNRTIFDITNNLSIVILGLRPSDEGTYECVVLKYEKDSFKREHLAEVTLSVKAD; 8

1. variant CD80 IgV-Fc E35D/D46E (Fc fusion) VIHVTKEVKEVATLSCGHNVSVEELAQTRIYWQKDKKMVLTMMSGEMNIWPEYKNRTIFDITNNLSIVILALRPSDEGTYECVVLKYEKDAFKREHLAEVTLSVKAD
2. variant CD80 IgV-Fc D46V/M47I/A71G (Fc fusion) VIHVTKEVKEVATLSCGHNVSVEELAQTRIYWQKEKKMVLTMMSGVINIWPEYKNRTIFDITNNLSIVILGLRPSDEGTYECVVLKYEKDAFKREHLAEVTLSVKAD
Data request: // pick larger Fold change to WT CD80 from pair: 1 vs 2 Indicate your choice by writing its label.
Data returned: 2

a. variant CD80 IgV-Fc M47I/A71G (Fc fusion) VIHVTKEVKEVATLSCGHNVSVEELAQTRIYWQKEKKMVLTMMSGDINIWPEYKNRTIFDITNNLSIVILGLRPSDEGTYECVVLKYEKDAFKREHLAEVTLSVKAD
b. variant CD80 IgV-Fc Q27L/E35D/M47V/I61V/L85M (Fc fusion) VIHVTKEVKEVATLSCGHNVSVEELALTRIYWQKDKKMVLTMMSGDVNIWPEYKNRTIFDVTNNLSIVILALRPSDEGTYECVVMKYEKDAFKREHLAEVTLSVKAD
Data request: API: POST /compare with a and b ; response names the item with higher Fold change to WT CD80. Kindly give the label for the entry you pick.
Data returned: a
